# Experimental details: qHTS RealTime-Glo MT Cell Viability Assay in HepG2 cells - 32 hour (AID 1224877); further: nearly all actives have a fitted effect of over 55% in size
# Applied conditions: RealTime-Glo luminescence; series mostly up to 76.8 µM
# Source text: U.S. Tox21 Program National Center for Advancing Translational Sciences [NCATS] NIH Chemical Genomics Center [NCGC] U.S. Environmental Protection Agency [EPA] National Institutes of Environmental Health Sciences [NIEHS] National Toxicology Program [NTP] U.S. Food and Drug Administration [FDA] Tox21 Assay Overview: Measure of cell viability is critical in the cell-base assay. Analysis of cell viability is necessary for the characterization of cell responses to cytotoxic drugs and environmental stress. […]
Inconclusive results are not listed. Calls of active or inactive are those of the source. The call rests on the fitted dose curve; in most records, active means well fitted cell-killing curve with a large enough effect in the repeat runs; inconclusive means weak or mixed curves; inactive means flat fitted curve, though single readings scatter.
The reply should name one outcome from T for active, F for inactive

Known results for molecules:
>>> category_label("O=C(OC1CCCCC1)c1ccccc1C(=O)OC1CCCCC1")
"F"
>>> category_label("c1ccoc1")
"F"
>>> category_label("NS(=O)(=O)C(F)(F)C(F)(F)C(F)(F)C(F)(F)C(F)(F)C(F)(F)C(F)(F)C(F)(F)F")
"F"
>>> category_label("Cn1cc[n+](C)c1 (tested in a mixture with another compound)")
"F"
>>> category_label("CCC(C)(NC(=O)c1cc(Cl)c(C)c(Cl)c1)C(=O)CCl (stereo not given)")
"T"
>>> category_label("Nc1nc(N)nc(N)n1")
"F"

**Query** Hi, do you know how "C=CC(=O)OC(C)(C)C" came out in this test?
**Result** F

**Query** Hi, do you know how "NC(=O)CI" came out in this test?
**Result** T

**Query** Hi, do you know how "CCn1cc[n+](C)c1" came out in this test?
**Result** F

**Query** Hi, do you know how ClCC(Br)CBr (stereo not given) came out in this test?
**Result** F

---

# Experimental details: qHTS assay to identify small molecule agonists of H2AX - cell viability counter screen (AID 1224847); further: nearly all actives have a fitted effect of over 30% in size
# Applied conditions: CHO-K1 viability, CellTiter-Glo luminescence, 3 h; series mostly up to 154 µM
Inconclusive results are not listed. Calls of active or inactive are those of the source. Calls follow the shape of the full dose curve.
The reply should name one outcome from true (1) (active), false (0) (inactive)

>>> category_label("CCC(Br)(CC)C(=O)NC(N)=O")
"false (0)"

**Query** Hi, do you know how "CC(C)=CCOc1c2occc2cc2ccc(=O)oc12" came out in this test?
**Result** false (0)

**Query** Hi, do you know how "O=C(OC1CCCCC1)c1ccccc1C(=O)OC1CCCCC1" came out in this test?
**Result** true (1)

**Query** Hi, do you know how "ClP(Cl)(Cl)(Cl)Cl" came out in this test?
**Result** false (0)

**Query** Hi, do you know how "C=CC(=O)OCCCCO" came out in this test?
**Result** false (0)

**Query** Hi, do you know how "C=CCOC(C)=O" came out in this test?
**Result** false (0)

---

# Experimental details: qHTS assay to identify small molecule antagonists of the thyroid receptor (TR) signaling pathway (AID 743065); further: nearly all actives have a fitted effect of over 55% in size
# Applied conditions: GH3.TRE-Luc, T3-stimulated luciferase inhibition, 23.5 h; series mostly up to 70.3 µM
Records with an inconclusive call do not appear. The source made the active and inactive calls. Calls follow the shape of the dose curve; as a rule, active = well fitted inhibition curve with a large enough effect in the repeat runs; inconclusive = weak or mixed curves; inactive = no such curve, though single readings can be large or run the other way.
The reply should name one outcome from active, inactive

>>> category_label("CCOP(=O)(OCC)SCCSCC")
"inactive"
>>> category_label("CC1(C)CCC(Cc2ccc(Cl)cc2)C1(O)Cn1cncn1 (stereo unspecified)")
"active"
>>> category_label("CCc1ccc(C(=O)NN(C(=O)c2cc(C)cc(C)c2)C(C)(C)C)cc1")
"inactive"
>>> category_label("OCCCBr")
"active"
>>> category_label("CC/C(=N\\OC/C=C/Cl)C1=C(O)CC(C2CCOCC2)CC1=O (stereo unspecified)")
"inactive"

**Query** Hi, do you know how "COc1ccc(-c2ccccc2)cc1NNC(=O)OC(C)C" came out in this test?
**Result** active

---

# Experimental details: A CellTox Green Cytotoxicity Assay to monitor cytotoxicity in HepG2 cells - 40 hour (AID 1224879); further: nearly all actives have a fitted effect of over 40% in size
# Applied conditions: CellTox Green fluorescence; series mostly up to 76.8 µM
Inconclusive results are not listed. Calls of active or inactive are those of the source. Calls follow the shape of the dose curve; as a rule, active = well fitted activation curve with a large enough effect in the repeat runs; inconclusive = weak or mixed curves; inactive = flat fitted curve, though single readings scatter.
The reply should name one outcome from active, inactive

>>> category_label("O=[N+]([O-])c1ccc(F)c([N+](=O)[O-])c1")
"inactive"

**Query** Hi, do you know how "O=Cc1ccc2c(c1)OCO2" came out in this test?
**Result** inactive

---

# Experimental target: Estrogen receptor (Homo sapiens)
# Experimental details: qHTS assay to identify small molecule antagonists of the estrogen receptor alpha (ER-alpha) signaling pathway using the BG1 cell line in the presence of 0.1 nM 17-beta-estradiol (AID 1259244); further: nearly all actives have a fitted effect of over 50% in size; further: potency means the concentration at half of the fitted maximal effect
# Applied conditions: VM7Luc4E2 (BG1) ERE-luciferase, antagonist mode, 0.1 nM E2, 22 h; series mostly up to 92.4 µM
Records with an inconclusive call do not appear. The source made the active and inactive calls. The call rests on the fitted dose curve; in most records, active means well fitted inhibition curve with a large enough effect in the repeat runs; inconclusive means weak or mixed curves; inactive means no such curve, though single readings can be large or run the other way.
Parameter measured: Potency

>>> test_value("O=C(O)C(F)(F)C(F)(F)C(F)(F)C(F)(F)C(F)(F)C(F)(F)C(F)(F)C(F)(F)C(F)(F)F")
"inactive"
>>> test_value("CCOP(=S)(OCC)SCn1nnc2ccccc2c1=O")
"48.6 µM (active)"
>>> test_value("ClP(Cl)(Cl)(Cl)Cl")
"inactive"
>>> test_value("CC[C@H]1C[C@H]2[C@@H]3CCC4=CC(=O)CC[C@@H]4[C@H]3CC[C@]2(C)[C@H]1O")
"inactive"

---

# Experimental details: qHTS assay to identify small molecule agonists of the estrogen receptor alpha (ER-alpha) signaling pathway in the presence of an antagonist - cell viability counter screen (AID 1259386);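 further: cells exposed to compounds for 22 h at 37 °C before the viability read; nearly all actives have a fitted effect of over 30% in size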
# Applied conditions: VM7Luc4E2 viability, CellTiter-Fluor fluorescence, 22 h; series mostly up to 92.4 µM
# From the text: National Center for Advancing Translational Sciences [NCATS] NIH Chemical Genomics Center [NCGC] U.S. Environmental Protection Agency [EPA] National Institutes of Environmental Health Sciences [NIEHS] National Toxicology Program [NTP] U.S. Food and Drug Administration [FDA] Estrogen receptor (ER), a member of nuclear hormone receptor plays an important role in development, metabolic homeostasis and reproduction. […]
Records with an inconclusive call do not appear. Active and inactive are the calls of the source. Calls follow the shape of the dose curve; as a rule, active = well fitted cell-killing curve with a large enough effect in the repeat runs; inconclusive = weak or mixed curves, or effect the other way; inactive = no such curve, though single readings can be large or run the other way.
The reply should name one outcome from active, inactive

>>> category_label("CC(C)(C)C(O)C(Oc1ccc(Cl)cc1)n1cncn1 (stereo not given)")
"inactive"
>>> category_label("CCCCOC(=O)c1ccccc1C(=O)OCc1ccccc1")
"inactive"

**Query** Hi, do you know how "CCCN(CC1CC1)c1c([N+](=O)[O-])cc(C(F)(F)F)cc1[N+](=O)[O-]" came out in this test?
**Result** inactive

**Query** Hi, do you know how BrCC(Br)C1CCC(Br)C(Br)C1 (stereo not given) came out in this test?
**Result** inactive

**Query** Hi, do you know how "[O-][Cl+]O" came out in this test?
**Result** inactive

**Query** Hi, do you know how O=C(O)CC(Cl)C(=O)O (stereo not given) came out in this test?
**Result** inactive

**Query** Hi, do you know how "O=C(NCc1cccnc1)Nc1ccc([N+](=O)[O-])cc1" came out in this test?
**Result** inactive

**Query** Hi, do you know how CN1C(=O)NC(=O)C(C)(C2=CCCCC2)C1=O (stereo not given) came out in this test?
**Result** inactive

**Query** Hi, do you know how "O=[N+]([O-])c1cc(C(F)(F)F)cc([N+](=O)[O-])c1Cl" came out in this test?
**Result** active

---

# Experimental details: qHTS RealTime-Glo MT Cell Viability Assay in HepG2 cells - 0 hour (AID 1224889); further: nearly all actives have a fitted effect of over 50% in size
# Applied conditions: RealTime-Glo luminescence; series mostly up to 76.8 µM
Inconclusive results are not listed. Active and inactive are the calls of the source. Calls follow the shape of the dose curve; as a rule, active = well fitted cell-killing curve with a large enough effect in the repeat runs; inconclusive = weak or mixed curves, or effect the other way; inactive = flat fitted curve, though single readings scatter.
The reply should name one outcome from 1 for active, -1 for inactive

>>> category_label("COCCOCCO")
-1
>>> category_label("O=C(O)C(F)(F)C(F)(F)C(F)(F)C(F)(F)C(F)(F)C(F)(F)C(F)(F)C(F)(F)C(F)(F)F")
-1
>>> category_label("CCCN(CCCl)c1c([N+](=O)[O-])cc(C(F)(F)F)cc1[N+](=O)[O-]")
-1
>>> category_label("CCOP(=O)(OCC)Oc1ccc([N+](=O)[O-])cc1")
-1
>>> category_label("CCCCNP(N)(N)=S")
-1
>>> category_label("CO/C=C(/C(=O)OC)c1ccccc1COc1cccc(C(F)(F)F)n1")
-1
>>> category_label("CN1C[C@H](CNC(=O)OCc2ccccc2)C[C@@H]2c3cccc4c3c(cn4C)C[C@H]21")
-1
>>> category_label("CCOC(=O)C(Cl)C(C)=O (configuration not stated)")
-1

Now consider the entry below.
**Query** Hi, do you know how Clc1ccc(C(OCCN2CCCCC2)c2ccccc2)cc1 (configuration not stated) came out in this test?
**Result** -1
